# Test system: Streptococcus salivarius
# experiment_summary: growth AUC relative to DMSO control (median of replicates) (fraction); higher = more growth (less inhibition), active = hit call of the paper
# condition_parameters: 20 µM; 24 h

compound: CCOP(=S)(OCC)Oc1ccc2c(C)c(Cl)c(=O)oc2c1
tgt: Streptococcus salivarius
growth AUC: 1 (inactive)

compound: CCCOCCN(C(=O)CCl)c1c(CC)cccc1CC
tgt: Streptococcus salivarius
growth AUC: 0.952 (inactive)

compound: CC(Oc1ccc(Cl)cc1Cl)C(=O)O (stereo unspecified)
tgt: Streptococcus salivarius
growth AUC: 0.981 (inactive)

compound: CC(C)c1ccc(NC(=O)N(C)C)cc1
tgt: Streptococcus salivarius
growth AUC: 0.956 (inactive)

compound: COCCOC(=O)C(C#N)(C(=O)c1ccccc1C(F)(F)F)c1ccc(C(C)(C)C)cc1 (stereo unspecified)
tgt: Streptococcus salivarius
growth AUC: 0.917 (inactive)

compound: COP(=O)(OC)O/C(=C/Br)c1ccc(Cl)cc1Cl
tgt: Streptococcus salivarius
growth AUC: 1 (inactive)

compound: CCC/C(=N\OCC)C1=C(O)CC(CC(C)SCC)CC1=O (stereo unspecified)
tgt: Streptococcus salivarius
growth AUC: 1.01 (inactive)

compound: CC(=O)O.NC(N)=NCCCCCCCCNCCCCCCCCN=C(N)N
tgt: Streptococcus salivarius
growth AUC: 0.474 (active)

compound: Cc1cc(C)c(C2=C(OC(=O)CC(C)(C)C)C3(CCCC3)OC2=O)c(C)c1
tgt: Streptococcus salivarius
growth AUC: 0.991 (inactive)

compound: CCN(CC)C(=O)SCc1ccc(Cl)cc1
tgt: Streptococcus salivarius
growth AUC: 0.986 (inactive)

compound: CC1(C)CON(Cc2ccccc2Cl)C1=O
tgt: Streptococcus salivarius
growth AUC: 0.87 (inactive)

====

# System: Bacteroides thetaiotaomicron
# experiment_summary: growth AUC relative to DMSO control (median of replicates) (fraction); higher = more growth (less inhibition), active = hit call of the paper
# condition_parameters: 20 µM; 24 h
Each entry below carries its reported growth AUC.

compound: CCc1cccc(C)c1N(C(=O)CCl)[C@@H](C)COC
growth AUC: 0.975
--
compound: CC[C@H](C)[C@H]1O[C@]2(C=C[C@@H]1C)C[C@@H]1C[C@@H](C/C=C(\C)[C@@H](O[C@H]3C[C@H](OC)[C@@H](O[C@H]4C[C@H](OC)[C@@H](NC)[C@H](C)O4)[C@H](C)O3)[C@@H](C)/C=C/C=C3\CO[C@@H]4[C@H](O)C(C)=C[C@@H](C(=O)O1)[C@]34O)O2.O=C(O)c1ccccc1
growth AUC: 0.812
--
compound: CC1(C)C(/C=C(\Cl)c2ccc(Cl)cc2)C1C(=O)OC(C#N)c1ccc(F)c(Oc2ccccc2)c1 (stereo not given)
growth AUC: 1
--
compound: Cc1ccccc1[N+](=O)[O-]
growth AUC: 1.01
--
compound: CCCN(CCC)c1c([N+](=O)[O-])cc(C(F)(F)F)cc1[N+](=O)[O-]
growth AUC: 0.976
--
compound: CCCOc1nn(C(=O)[N-]S(=O)(=O)c2ccccc2C(=O)OC)c(=O)n1C.[Na+]
growth AUC: 0.992
--
compound: CC1(C)C(C=C(Cl)Cl)C1C(=O)OC(C#N)c1cccc(Oc2ccccc2)c1 (mixture of isomers)
growth AUC: 0.981
--
compound: O=S(=O)(c1ccc(Cl)cc1)c1cc(Cl)c(Cl)cc1Cl
growth AUC: 0.952
--
compound: C[C@@H](Oc1ccc(Cl)cc1Cl)C(=O)O
growth AUC: 1
--
compound: COC(=O)NS(=O)(=O)c1ccc(N)cc1
growth AUC: 0.948
--
compound: CNC(=O)/C=C(\C)OP(=O)(OC)OC
growth AUC: 1.01
--
compound: CCOP(=S)(OCC)SCS(=O)(=O)CC
growth AUC: 0.996
--
compound: CN(C)C(=S)[S-].CN(C)C(=S)[S-].[Zn+2]
growth AUC: 0.694
--
compound: Clc1ccc(C(c2ccc(Cl)cc2)C(Cl)Cl)cc1
growth AUC: 0.933
--
compound: Clc1ccc(C2(Cn3cncn3)CC(Br)CO2)c(Cl)c1 (stereo not given)
growth AUC: 0.961
--
compound: ClC1=C(Cl)[C@]2(Cl)C3CC=CC3[C@@]1(Cl)C2(Cl)Cl (stereo not given in full)
growth AUC: 0.981
--
compound: N#Cc1c(O)c(Cl)c(Cl)c(C#N)c1Cl
growth AUC: 0.995
--
compound: CC1(C)C(C=C(Cl)Cl)C1C(=O)OC(C#N)c1cccc(Oc2ccccc2)c1 (stereo not given)
growth AUC: 0.963
--
compound: CCOP(=S)(OCC)Oc1cc(Cl)c(Br)cc1Cl
growth AUC: 0.979
--
compound: NCP(=O)(O)O
growth AUC: 0.982
